- assayMethodText: The drug is tested on Eubacterium hallii strain: DSM3353 for biotransformation under anaerobic condition. The drug concentrations were measured over 6 timepoints collected between 0 and 12 hours of incubation by liquid-chromatography-coupled mass spectrometry (LC–MS)
- Assay type: ADME
- Design: dose 5 uM, timepoint 0, 1.5, 3, 6, 9, 12 hours
- conditionNotes: anaerobutyricum hallii, 5 µM
quantity: Bacterial Biotransformation

molecule	quantity	experimentalResult
CC(C)NCC(O)COc1ccc(CC(N)=O)cc1 (centres undefined) [ATENOLOL]	Bacterial Biotransformation	Compound NOT metabolized
COc1ccc([C@@H]2Sc3ccccc3N(CCN(C)C)C(=O)[C@@H]2OC(C)=O)cc1 [DILTIAZEM]	Bacterial Biotransformation	Compound NOT metabolized
CN(Cc1cnc2nc(N)nc(N)c2n1)c1ccc(C(=O)N[C@@H](CCC(=O)O)C(=O)O)cc1 [METHOTREXATE]	Bacterial Biotransformation	Compound metabolized
C[C@]12CCC(=O)C=C1CC[C@@H]1[C@@H]2[C@@H](O)C[C@@]2(C)[C@H]1CC[C@]2(O)C(=O)CO [HYDROCORTISONE]	Bacterial Biotransformation	Compound NOT metabolized
CO[C@H]1C[C@@H]2CC[C@@H](C)[C@@](O)(O2)C(=O)C(=O)N2CCCC[C@H]2C(=O)O[C@H]([C@H](C)C[C@@H]2CC[C@@H](O)[C@H](OC)C2)CC(=O)[C@H](C)/C=C(\C)[C@@H](O)[C@@H](OC)C(=O)[C@H](C)C[C@H](C)/C=C/C=C/C=C/1C [SIROLIMUS]	Bacterial Biotransformation	Compound metabolized
CCOC(=O)[C@H](CCc1ccccc1)N[C@@H](C)C(=O)N1[C@H](C(=O)O)C[C@@H]2CCC[C@@H]21	Bacterial Biotransformation	Compound NOT metabolized
C[C@]12C=CC(=O)C=C1CC[C@@H]1[C@@H]2C(=O)C[C@@]2(C)[C@H]1CC[C@]2(O)C(=O)CO [PREDNISONE]	Bacterial Biotransformation	Compound NOT metabolized
COc1c(C)c2c(c(O)c1C/C=C(\C)CCC(=O)O)C(=O)OC2 [MYCOPHENOLIC ACID]	Bacterial Biotransformation	Compound NOT metabolized
CCOC(=O)C1=C(COCCN)NC(C)=C(C(=O)OC)C1c1ccccc1Cl (centres undefined) [AMLODIPINE]	Bacterial Biotransformation	Compound NOT metabolized
C[C@]12CCC(=O)C=C1CC[C@@H]1[C@@H]2C(=O)C[C@@]2(C)[C@H]1CC[C@]2(O)C(=O)CO [CORTISONE]	Bacterial Biotransformation	Compound NOT metabolized
C[C@]12C=CC(=O)C=C1CC[C@@H]1[C@@H]2[C@@H](O)C[C@@]2(C)[C@H]1CC[C@]2(O)C(=O)CO [PREDNISOLONE]	Bacterial Biotransformation	Compound NOT metabolized
CNC(=C[N+](=O)[O-])NCCSCc1ccc(CN(C)C)o1 [RANITIDINE]	Bacterial Biotransformation	Compound NOT metabolized
CCOc1nc2cccc(C(=O)O)c2n1Cc1ccc(-c2ccccc2-c2nnn[nH]2)cc1	Bacterial Biotransformation	Compound NOT metabolized
C=CC[C@@H]1/C=C(\C)C[C@H](C)C[C@H](OC)[C@H]2O[C@@](O)(C(=O)C(=O)N3CCCC[C@H]3C(=O)O[C@H](/C(C)=C/[C@@H]3CC[C@@H](O)[C@H](OC)C3)[C@H](C)[C@@H](O)CC1=O)[C@H](C)C[C@@H]2OC.O [TACROLIMUS]	Bacterial Biotransformation	Compound metabolized
CCCC1O[C@@H]2C[C@H]3[C@@H]4CCC5=CC(=O)C=C[C@]5(C)[C@H]4[C@@H](O)C[C@]3(C)[C@]2(C(=O)CO)O1 (some centres undefined) [BUDESONIDE]	Bacterial Biotransformation	Compound NOT metabolized
COc1c(C)c2c(c(O)c1C/C=C(\C)CCC(=O)OCCN1CCOCC1)C(=O)OC2 [MYCOPHENOLATE MOFETIL]	Bacterial Biotransformation	Compound NOT metabolized
Cn1cnc([N+](=O)[O-])c1Sc1ncnc2nc[nH]c12 [AZATHIOPRINE]	Bacterial Biotransformation	Compound metabolized
CCC(C)(C)C(=O)O[C@H]1C[C@@H](C)C=C2C=C[C@H](C)[C@H](CC[C@@H]3C[C@@H](O)CC(=O)O3)[C@H]21 [SIMVASTATIN]	Bacterial Biotransformation	Compound NOT metabolized
C[C@@H](NCCCc1cccc(C(F)(F)F)c1)c1cccc2ccccc12	Bacterial Biotransformation	Compound NOT metabolized
C[C@H]1C[C@H]2[C@@H]3CCC4=CC(=O)C=C[C@]4(C)[C@@]3(F)[C@@H](O)C[C@]2(C)[C@@]1(O)C(=O)CO [BETAMETHASONE]	Bacterial Biotransformation	Compound NOT metabolized
NS(=O)(=O)c1cc(C(=O)O)c(NCc2ccco2)cc1Cl [FUROSEMIDE]	Bacterial Biotransformation	Compound NOT metabolized
C[C@@H]1C[C@H]2[C@@H]3CCC4=CC(=O)C=C[C@]4(C)[C@@]3(F)[C@@H](O)C[C@]2(C)[C@@]1(O)C(=O)CO [DEXAMETHASONE]	Bacterial Biotransformation	Compound NOT metabolized
CO[C@H]1C[C@@H]2CC[C@@H](C)[C@@](O)(O2)C(=O)C(=O)N2CCCC[C@H]2C(=O)O[C@H]([C@H](C)C[C@@H]2CC[C@@H](OCCO)[C@H](OC)C2)CC(=O)[C@H](C)/C=C(\C)[C@@H](O)[C@@H](OC)C(=O)[C@H](C)C[C@H](C)/C=C/C=C/C=C/1C [EVEROLIMUS]	Bacterial Biotransformation	Compound metabolized
C[C@H]1C[C@@H]2[C@H]([C@@H](O)C[C@@]3(C)[C@H]2CC[C@]3(O)C(=O)CO)[C@@]2(C)C=CC(=O)C=C12 [METHYLPREDNISOLONE]	Bacterial Biotransformation	Compound NOT metabolized

Data provenance is ChEMBL document CHEMBL5724806.
